- Tested on: panel of 4 panelists (sweet taste)
- assaySummary: Organoleptic test of the compounds of formula (I) against sucrose and mogroside V
- Type: in vivo
- Parameters: key: 3 = sweeter than control, 1 = less sweet than control but still sweet
- runParameters: compound 0.4 mg/ml (400 ppm) in non-carbonated mineral water, control solution sucrose 20 mg/ml
measurementName: Organoleptic evaluation compared to sucrose*

molecule	system	result
C[C@H](CC[C@@H](O[C@@H]1O[C@H](CO[C@@H]2O[C@H](CO)[C@@H](O)[C@H](O)[C@H]2O)[C@@H](O)[C@H](O)[C@H]1O[C@@H]1O[C@H](CO)[C@@H](O)[C@H](O)[C@H]1O)C(C)(C)O)[C@H]1CC[C@@]2(C)[C@@H]3CC=C4C(CC[C@H](O[C@@H]5O[C@H](CO)[C@@H](O)[C@H](O)[C@H]5O)C4(C)C)[C@]3(C)CC[C@]12C (stereo partly shown) [Compound Ee]	panel of 4 panelists (sweet taste)	3

###

Each record here notes measured Organoleptic evaluation compared to sucrose*.
- Test system: panel of 4 panelists (sweet taste)
- assaySummary: Organoleptic test of the compounds of formula (I) against sucrose and mogroside V
- Type: in vivo
- Design: key: 3 = sweeter than control, 1 = less sweet than control but still sweet
- runParameters: compound 0.4 mg/ml (400 ppm) in non-carbonated mineral water, control solution sucrose 20 mg/ml
measurementName: Organoleptic evaluation compared to sucrose*

molecule	resultNumber
C[C@H](CC[C@@H](O[C@@H]1O[C@H](CO[C@@H]2O[C@H](CO)[C@@H](O)[C@H](O)[C@H]2O)[C@@H](O)[C@H](O)[C@H]1O[C@@H]1O[C@H](CO)[C@@H](O)[C@H](O)[C@H]1O)C(C)(C)O)[C@H]1CC[C@@]2(C)C3CC=C4[C@@H](CC[C@H](O[C@@H]5O[C@H](CO)[C@@H](O)[C@H](O)[C@H]5O)C4(C)C)[C@]3(C)CC[C@]12C (stereo partly drawn)	3
C[C@H](CC[C@@H](O[C@@H]1O[C@H](CO[C@@H]2O[C@H](CO)[C@@H](O)[C@H](O)[C@H]2O)[C@@H](O)[C@H](O)[C@H]1O[C@@H]1O[C@H](CO)[C@@H](O)[C@H](O)[C@H]1O)C(C)(C)O)[C@H]1CC[C@@]2(C)C3CC=C4[C@@H](CC[C@H](O[C@@H]5O[C@H](CO)[C@@H](O)[C@H](O)[C@H]5O)C4(C)C)[C@]3(C)C(=O)C[C@]12C (stereo partly drawn)	3
C[C@H](CC[C@@H](O[C@@H]1O[C@H](CO)[C@@H](O)[C@H](O)[C@H]1O[C@@H]1O[C@H](CO)[C@@H](O)[C@H](O)[C@H]1O)C(C)(C)O)[C@H]1CC[C@@]2(C)C3CC=C4C(CC[C@H](O[C@@H]5O[C@H](CO)[C@@H](O)[C@H](O)[C@H]5O)C4(C)C)[C@]3(C)CC[C@]12C (stereo partly drawn)	3

###

- Test system: panel of 4 panelists (sweet taste)
- assaySummary: Organoleptic test of the compounds of formula (I) against sucrose and mogroside V
- Type: in vivo
- Parameters: key: 3 = sweeter than control, 1 = less sweet than control but still sweet
- runParameters: compound 0.4 mg/ml (400 ppm) in non-carbonated mineral water, control solution sucrose 20 mg/ml
Each record here notes measured Organoleptic evaluation compared to sucrose*.
measurementName: Organoleptic evaluation compared to sucrose*

molecule	resultNumber
C[C@H](CC[C@@H](O[C@@H]1O[C@H](CO[C@@H]2O[C@H](CO)[C@@H](O)[C@H](O)[C@H]2O)[C@@H](O)[C@H](O)[C@H]1O[C@@H]1O[C@H](CO)[C@@H](O)[C@H](O)[C@H]1O)C(C)(C)O)[C@H]1CC[C@@]2(C)C3CC=C4[C@@H](CCC(=O)C4(C)C)[C@]3(C)[C@H](O)C[C@]12C (stereo partly shown)	3
C[C@H](CC[C@@H](O[C@@H]1O[C@H](CO[C@@H]2O[C@H](CO)[C@@H](O)[C@H](O)[C@H]2O)[C@@H](O)[C@H](O)[C@H]1O[C@@H]1O[C@H](CO)[C@@H](O)[C@H](O)[C@H]1O)C(C)(C)O)[C@H]1CC[C@@]2(C)[C@@H]3CC=C4C(CC[C@H](O[C@@H]5O[C@H](CO)[C@@H](O)[C@H](O)[C@H]5O[C@@H]5O[C@H](CO)[C@@H](O)[C@H](O)[C@H]5O)C4(C)C)[C@]3(C)CC[C@]12C (stereo partly shown)	3
C[C@H](CC[C@@H](O[C@@H]1O[C@H](CO[C@@H]2O[C@H](CO)[C@@H](O)[C@H](O)[C@H]2O)[C@@H](O)[C@H](O)[C@H]1O[C@@H]1O[C@H](CO)[C@@H](O)[C@H](O)[C@H]1O)C(C)(C)O)[C@H]1CC[C@@]2(C)[C@@H]3CC=C4[C@@H](CC[C@H](O[C@@H]5O[C@H](CO)[C@@H](O)[C@H](O)[C@H]5O[C@@H]5O[C@H](CO)[C@@H](O)[C@H](O)[C@H]5O)C4(C)C)[C@]3(C)[C@H](O)C[C@]12C	3
C[C@H](CC[C@@H](O[C@@H]1O[C@H](CO[C@@H]2O[C@H](CO)[C@@H](O)[C@H](O)[C@H]2O)[C@@H](O)[C@H](O)[C@H]1O[C@@H]1O[C@H](CO)[C@@H](O)[C@H](O)[C@H]1O)C(C)(C)O)[C@H]1CC[C@@]2(C)C3CC=C4C(CC[C@H](O[C@@H]5O[C@H](CO)[C@@H](O[C@@H]6O[C@H](CO)[C@@H](O)[C@H](O)[C@H]6O)[C@H](O)[C@H]5O)C4(C)C)[C@]3(C)CC[C@]12C (stereo partly shown)	3
C[C@H](CC[C@@H](O[C@@H]1O[C@H](CO)[C@@H](O)[C@H](O)[C@H]1O[C@@H]1O[C@H](CO)[C@@H](O)[C@H](O)[C@H]1O)C(C)(C)O)[C@H]1CC[C@@]2(C)[C@@H]3CC=C4C(CC[C@H](O)C4(C)C)[C@]3(C)[C@H](O)C[C@]12C (stereo partly shown)	3
C[C@H](CC[C@@H](O[C@@H]1O[C@H](CO[C@@H]2O[C@H](CO)[C@@H](O)[C@H](O)[C@H]2O)[C@@H](O)[C@H](O)[C@H]1O[C@@H]1O[C@H](CO)[C@@H](O)[C@H](O)[C@H]1O)C(C)(C)O)[C@H]1CC[C@@]2(C)C3CC=C4[C@@H](CC[C@H](O)C4(C)C)[C@]3(C)CC[C@]12C (stereo partly shown)	2
C[C@H](CCC(=O)C(C)(C)O)[C@H]1CC[C@@]2(C)C3CC=C4[C@@H](CC[C@H](O[C@@H]5O[C@H](CO[C@@H]6O[C@H](CO)[C@@H](O)[C@H](O)[C@H]6O)[C@@H](O)[C@H](O)[C@H]5O)C4(C)C)[C@]3(C)[C@H](O)C[C@]12C (stereo partly shown)	2
